Cited source: ChEMBL document CHEMBL1201862

Each record here notes measured GI50.
Test system: NCI-H23
protocol notes: NCI tumour cell line growth inhibition, 48 h
The source made the active and inactive calls. Cut-off read from the data, not from the text of the source: active = GI50 up to about 1.1 µM and inactive = higher.

Known results for compounds:
Looking up CCOC(=O)OC1C(Br)C2CCC1(C)C2(C)C (stereo unspecified) , I found its GI50 recorded as 17.2 µM (inactive)

Looking up Cc1ccc2c(c1)[n+]([O-])c(N)n[n+]2[O-] , I found its GI50 recorded as 63.2 µM (inactive)

***
Looking up c1csc(C(NC2=NCCO2)C2CC2)c1 (stereo unspecified) , I found its GI50 recorded as > 100 µM (inactive)

Looking up CC(C)C[P+](c1ccccc1)(c1ccccc1)c1ccccc1 , I found its GI50 recorded as 7.4 µM (inactive)

* * *

Test system: RXF 393
protocol notes: NCI tumour cell line growth inhibition, 48 h
The source made the active and inactive calls. No stated cut-off is given here; in the data, active = GI50 up to about 1.1 µM and inactive = higher.
Each record here notes measured GI50.

Known results for molecules:
Looking up N/C(=N\c1cccc(Cl)c1)c1ccccc1N , I found its GI50 recorded as > 100 µM (inactive)

Looking up O=C1OC(=O)C2CCCC3CCCC1C32 (stereo unspecified) , I found its GI50 recorded as > 100 µM (inactive)

Looking up CC(=O)Nc1cc(Nc2cc(O)nc(O)n2)ccc1C , I found its GI50 recorded as > 100 µM (inactive)

Looking up COc1cc(C[C@@]2(C)[C@@H]3CCC[C@H](CO)[C@@]3(C)CC[C@@H]2C)c(Cl)c(OC)c1 , I found its GI50 recorded as 11.6 µM (inactive)

Next:
Looking up Cc1ccc(C2=Nn3c(nc4sc(-c5ccccc5)cc4c3=O)SC2)cc1 , I found its GI50 recorded as > 10 µM (inactive)

* * *

System: CAKI-1
protocol notes: NCI tumour cell line growth inhibition, 48 h
Activity calls are given as the source filed them. Cut-off read from the data, not from the text of the source: active = GI50 up to about 1.1 µM and inactive = higher.
Permitted responses: 1 (yes) = active, 0 (no) = inactive

I would be grateful if you could indicate the recorded call for CC(C)(C)OC(=O)Cn1ncn(NC(=O)Cc2ccccc2)c1=O .
0 (no)

I would be grateful if you could indicate the recorded call for O=C(CCC(=O)C1CCC/C1=N/O)Nc1ccc(Cl)cc1 (stereo unspecified) .
0 (no)

I would be grateful if you could indicate the recorded call for C=CCN1C(=O)CC(=O)N(NC2=NNC3(C(=O)N2)c2ccccc2-c2ccccc23)C1=S .
0 (no)

***
I would be grateful if you could indicate the recorded call for CC1(C)CC(=O)C(/C(=N/NC(=S)NN)C(=O)Nc2nc3ccc([N+](=O)[O-])cc3s2)C(=O)C1 .
0 (no)

I would be grateful if you could indicate the recorded call for CN/N=C(/Cc1occc(=O)c1O)C(=O)Nc1ccc(C)c(C)c1 .
0 (no)

I would be grateful if you could indicate the recorded call for CC(=O)N[C@@H](Cc1ccc(O)cn1)C(=O)NC1CCCCC1 .
0 (no)

I would be grateful if you could indicate the recorded call for Cc1ccccc1NC(=O)c1cc(-c2ccc([N+](=O)[O-])cc2)nc(S)n1 .
0 (no)

I would be grateful if you could indicate the recorded call for CCCCCCCCCCCCCCCCCCNc1ccn(C2OC(COP(=O)(O)OCCCCCCCCCCCCCCCC)C(O)C2O)c(=O)n1 (stereo unspecified) .
0 (no)

* * *

Tested on: HOP-92
protocol notes: NCI tumour cell line growth inhibition, 48 h
Activity calls are given as the source filed them. Rule as the data show it: active = GI50 up to about 1.1 µM and inactive = higher.
Permitted responses: true (1) for active, false (0) for inactive

I would be grateful if you could indicate the recorded call for OC1(c2ccccc2)CSC2=Nc3ccccc3C3CCN1N23 (stereo unspecified) .
false (0)

I would be grateful if you could indicate the recorded call for N#C/C(C(=O)Nc1ccc(Cl)cc1)=C(/N)N1CCCC1 .
false (0)

I would be grateful if you could indicate the recorded call for N[C@@H]1c2c(Br)sc(Br)c2[C@H](O)[C@@H]1O .
false (0)

I would be grateful if you could indicate the recorded call for O=[N+]([O-])c1cccc2nc3ccccc3c(NCCCNc3c4ccccc4nc4cccc([N+](=O)[O-])c34)c12 .
true (1)

I would be grateful if you could indicate the recorded call for CCOC(=O)N(C)C(=C(F)F)C(F)(F)F .
false (0)

***
I would be grateful if you could indicate the recorded call for O=c1[nH]c2ccsc2c(=O)n1COCc1ccccc1 .
false (0)
